# credit: PubChem BioAssay (NCI)

System: BT-549 breast
Procedure details: NCI-60 one-dose screen, 48 h
Experimental parameters: 10 µM unless noted
Compounds without any hit were thinned out: in the full panel of roughly 83,000, 20% have a hit. Activity calls are given as the source filed them. Rule for the calls: active = growth percent below 10; inactive = the rest.
Can you answer with just one of these options? active, inactive

Exam item: Each compound tested received a call. Report the one for `c1coc2occoc=2o1` .
Marked response: inactive

Exam item: Each compound tested received a call. Report the one for `C=C(C)[C@@H]1CC[C@]2(COCCCN)CC[C@]3(C)[C@H](CC[C@@H]4[C@@](C)(CCCNCCCN)[C@H](C(=C)C)CC[C@]43C)[C@@H]12` .
Marked response: active

Exam item: Each compound tested received a call. Report the one for `CCOC(=O)c1cc(C(=O)c2ccc(OC)c(OC)c2)n2ccc(-c3ccccn3)cc12` .
Marked response: inactive

Exam item: Each compound tested received a call. Report the one for `N#Cc1c(N2CCOCC2)nc(=S)[nH]c1-c1ccco1` .
Marked response: inactive

Exam item: Each compound tested received a call. Report the one for `CC1(C)CC[C@]2(C(=O)O)CC[C@]3(C)[C@H](CC[C@@H]4[C@@]5(C)CCC(=O)C(C)(C)[C@@H]5CC[C@]43C)[C@H]2[C@H]1OC(=O)C(F)(F)F` .
Marked response: active

Exam item: Each compound tested received a call. Report the one for `CCN1CCN(CC(=O)Nc2nc3ccc(NCc4ccc(Cl)cc4)cc3s2)CC1` .
Marked response: inactive

Exam item: Each compound tested received a call. Report the one for `Cc1cccc(C[C@H](NC(=O)Nc2ccc(Cl)cc2F)C(=O)N[C@@H]2C(=O)N3C[C@H](OC(=O)CCN(C)C)C[C@H]3C(=O)N3CCCC[C@H]3C(=O)N[C@@H](C)C(=O)N3C[C@H](C)C[C@H]3C(=O)O[C@H]2C)c1` .
Marked response: active

Exam item: Each compound tested received a call. Report the one for `COc1cc(C(=O)/C=C/c2c(-c3ccc(F)cc3)nc3sccn23)cc(OC)c1OC` .
Marked response: inactive
